Could you please report measured growth for the items listed next?
system: EKVX NSCLC; assay: NCI-60 one-dose screen, 48 h (100 = growth as untreated, 0 = no growth, -100 = all killed); conditions: 10 µM unless noted
Compounds without any hit were thinned out: in the full panel of roughly 83,000, 20% have a hit.
Numbers only, in %.

Each of the following entries comes with a recorded value; kindly state growth for each.
1. COc1ccc2c(c1OC)CO[C@@H]2[C@H]1c2c(cc3c(c2OC)OCO3)CCN1S(=O)(=O)c1cn(C)cn1
2. Clc1cccc(Nc2ncnc3ccc(-c4cnc5[nH]ccc5c4)cc23)c1
3. c1ccc(Cn2cc3c(c2)-c2oncc2CC3)cc1
4. Cc1nc2sc(C(=O)Nc3cccc(Br)c3)c(N)c2cc1C(O)c1ccccc1 (stereo not drawn)
5. COC(=O)c1nc(-c2ccc(C)cc2)oc1S(=O)(=O)c1cccc(OC)c1
6. O=C1c2c(c3c4ccccc4[nH]c3c3ccc4ccccc4c23)C(=O)N1CCN1CCOCC1
7. CCC1=C[C@@H]2C[C@]3(C(=O)OC)c4[nH]c5ccccc5c4CC[N@+](CC(=O)Nc4cc5c(cc4OC)N(C)[C@H]4[C@@](O)(C(=O)OC)[C@H](OC(C)=O)[C@]6(CC)C=CCN7CC[C@]54[C@@H]76)(C2)[C@H]13

[A]
45.6
10
41.4
48.5
100
61.8
105

Query CC(=O)/C(=C\c1c(-c2ccccc2)[nH]c2ccccc12)S(C)(=O)=O yields growth of 50.4

----------
test system: NCI/ADR-RES ovarian; experiment: NCI-60 one-dose screen, 48 h (100 = growth as untreated, 0 = no growth, -100 = all killed); conditions: 10 µM unless noted
Compounds without any hit were thinned out: in the full panel of roughly 83,000, 20% have a hit.
value_type: growth (%)
Numbers only, in %.

Example entries and their recorded answers appear below.
# compound, measured_number
records = [
    ("CCN(CC)Cc1cc(C=C2C(=O)NC(=S)NC2=O)cc(OC)c1O", 110),
    ("CC1CN(S(=O)(=O)c2oc(-c3ccc(Cl)cc3)nc2C#N)CC(C)O1 (stereo not given)", 101),
]

Each of the following entries comes with a recorded value; kindly state growth for each.
1. COc1cc2c(c(OC)c1OC)CCC(c1cccc(NC(=O)c3ccc(Br)cc3)c1)O2 (stereo not given)
2. CC(=O)Oc1ccc(C)cc1C
3. CN1C(=O)/C(=C\c2nc([P+](c3ccccc3)(c3ccccc3)c3ccccc3)c(N3CCOCC3)o2)SC1=S
4. Cc1ccc(C)n1-c1ccccc1-n1c(C)ccc1C
5. COc1ccc(-c2nc3cc(C(=O)NCc4ccccc4)ccc3n2C2CCCCC2)cc1
6. CN(C)c1ccc(-c2c(C#N)c(N)nn2C(=O)c2ccc(NC(=O)c3ccccn3)cc2)cc1
7. O=C1NC2(Nc3ccccc31)C(=O)Nc1c(Cl)cc(Cl)cc12 (stereo not given)

[A]
84.1
108
90.5
116
88.5
96.4
108

Each of the following entries comes with a recorded value; kindly state growth for each.
1. O=C(CSC(=S)n1cnnc1)NC(=O)c1ccccc1
2. O=C1C(Cl)=C(NCCCCCCNC2=C(Cl)C(=O)c3ccccc3C2=O)C(=O)c2ccccc21
3. O=S(=O)(Nc1cc(F)cc(Cl)c1)c1ccc(-c2cnc(C3CC3)o2)cc1
4. Cn1ccnc1C(=O)/C=C/c1ccc(C(=O)Nc2ccc(Cl)cc2)cc1
5. Nc1n[nH]c2ccc([C@H]3[C@@H]4C5CCC(C5)[C@@H]4c4c(ccc5[nH]ncc45)N3S(=O)(=O)C3CC3)cc12 (stereo not given in full)
6. COc1ccc2c(c1)c(-c1nc(-c3c[nH]c4ccncc34)cs1)cn2C
7. COc1cc2cc(NCc3cccc(Cl)c3)nc(C)c2cc1OC
8. C[PH+](c1nc2ccccc2nc1[PH+](C)C(C)(C)C)C(C)(C)C.C[PH+](c1nc2ccccc2nc1[PH+](C)C(C)(C)C)C(C)(C)C.[Au+].[Cl-] (stereo not given)

[A]
[99.7, 93.5, 21.9, 5.79, 0.763, -52.8, 42.5, -79.5]

Each of the following entries comes with a recorded value; kindly state growth for each.
1. Cc1ccc(NC(=O)c2sc3nc(C)c(Br)c(C)c3c2N)cc1
2. CN(/C(N)=N/N=C/c1c2ccccc2cc2ccccc12)C1CCCCC1
3. O=C(CN1C(=O)S/C(=C\C(Cl)=C\c2ccccc2)C1=O)NCCc1ccc(O)cc1

[A]
51.8
45
19.6
